The origin of these recorded values is paper PMC9967275.

This listing pairs molecules with measured TbrCatL Inhibition 10’.
# assay system: TbrCatL (Trypanosoma brucei rhodesiense, UniProt Q95PM0)
# Construct: Conor Caffrey (University of California San Diego)
# Sequence (Q95PM0 entry or part of it): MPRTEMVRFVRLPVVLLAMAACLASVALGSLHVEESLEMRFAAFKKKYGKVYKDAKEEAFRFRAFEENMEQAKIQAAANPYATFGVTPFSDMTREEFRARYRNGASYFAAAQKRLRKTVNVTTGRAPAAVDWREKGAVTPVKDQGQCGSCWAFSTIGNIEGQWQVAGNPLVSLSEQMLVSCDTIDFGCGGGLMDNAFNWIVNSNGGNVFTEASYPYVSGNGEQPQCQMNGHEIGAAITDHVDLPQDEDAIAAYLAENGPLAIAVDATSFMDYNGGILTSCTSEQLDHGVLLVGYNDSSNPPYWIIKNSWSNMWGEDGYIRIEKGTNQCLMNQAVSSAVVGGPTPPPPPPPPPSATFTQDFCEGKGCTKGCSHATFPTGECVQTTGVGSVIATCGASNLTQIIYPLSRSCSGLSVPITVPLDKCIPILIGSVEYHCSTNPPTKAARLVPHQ
# protocol description: TbrCatL enzymatic inhibition assay (cleavage of fluorogenic substrate Z-FR-AMC);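 note: at 5 µM compound concentration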
# Type: biochemical
# setup conditions: 10’ (pre-incubation time); Pathogen Box screening results
Kindly answer with a numeric value in %, unit omitted.

Please review the following examples before continuing.
>  <molecule>
CCOC(=O)c1noc(N)c1-c1ccccc1 [MMV1236379]

>  <assay system>
TbrCatL (Trypanosoma brucei rhodesiense, UniProt Q95PM0)

>  <property label>
TbrCatL Inhibition 10’

>  <unit text>
%

>  <recorded number>
-1.7

$$$$
>  <molecule>
CCc1ccccc1-n1c(C)cn2c3c(=O)n(C(C(=O)OC)C(C)C)c(=O)n(C)c3nc12 (stereo not drawn) [MMV688550]

>  <assay system>
TbrCatL (Trypanosoma brucei rhodesiense, UniProt Q95PM0)

>  <property label>
TbrCatL Inhibition 10’

>  <unit text>
%

>  <recorded number>
0.4

$$$$
>  <molecule>
Nc1nccc2ccc(Oc3ccncc3)cc12 [MMV026313]

>  <assay system>
TbrCatL (Trypanosoma brucei rhodesiense, UniProt Q95PM0)

>  <property label>
TbrCatL Inhibition 10’

>  <unit text>
%

>  <recorded number>
19

$$$$
>  <molecule>
Cc1nc(-c2ccccn2)nc(N(C)CCc2ccccc2)c1Cl [MMV658988]

>  <assay system>
TbrCatL (Trypanosoma brucei rhodesiense, UniProt Q95PM0)

>  <property label>
TbrCatL Inhibition 10’

>  <unit text>
%

>  <recorded number>
10

$$$$
>  <molecule>
CC(C)(C)c1cnc(NC(=O)c2ccccc2O)s1 [MMV495543]

>  <assay system>
TbrCatL (Trypanosoma brucei rhodesiense, UniProt Q95PM0)

>  <property label>
TbrCatL Inhibition 10’

>  <unit text>
%

>  <recorded number>
6.5

$$$$

Next up:
Return TbrCatL Inhibition 10’ measured with TbrCatL (Trypanosoma brucei rhodesiense, UniProt Q95PM0) given this molecule: CO[C@@H]1CN(c2ccc(C#CC3(O)CN4CCC3CC4)c(Cc3ccccc3)n2)C[C@H]1O (stereo partly drawn) [MMV688415]
3
